test system: Saccharomyces cerevisiae; experiment: protein stability index of tFT-peptide fusion (C-terminal peptide) (PSI (0-1 scale)); higher = more stable (slower turnover); settings: genetic background: cdc53-1; temperature: 37 C
Category key, based on recorded protein stability index: 1 (below 0.3), 2 (0.3 to below 0.6), 3 (0.6 or more)

Worked cases, answers included:
- MALAVRVVYCGA: 2
- PCTFYLFWMFFV: 2
- KEKGVTKIRISS: 3
- SPLHGFLFLVLL: 2
- CGLLWFYSFFLF: 2

Now consider the entry below.
Into which category would you place FFVYFFLLLFWF ?
1

###

test system: Saccharomyces cerevisiae; experiment: protein stability index of tFT-peptide fusion (C-terminal peptide) (PSI (0-1 scale)); higher = more stable (slower turnover); conditions: genetic background: das1 deletion; temperature: 30 C
Consider the following sequences; for each one, report its protein stability index.

* IGIGFGVGIIRE [BUD9 C-terminal 12 aa] | 0.698

For each of the items listed, what is its protein stability index?
1. TNMSSVSAFISR [PTK2 C-terminal 12 aa]
2. WGSIGQKLRRSA [YOL118C C-terminal 12 aa]

[0.718, 0.704]

For each of the items listed, what is its protein stability index?
1. RIPKELTGTVRF [GAT4 C-terminal 12 aa]
2. KLLGIFPNLSNF [YLL054C C-terminal 12 aa]
3. LGKKKPPSRLFR [CDC25 C-terminal 12 aa]
4. SRGQNTHPSVDK [ESC1 C-terminal 12 aa]
5. ALKKEYEAKKKA [COA3 C-terminal 12 aa]
6. ITLAELDVGDSE [CAF130 C-terminal 12 aa]
7. KVETVLNKMFEK [REC114 C-terminal 12 aa]
8. EVDDDGEIDGLF [ADE3 C-terminal 12 aa]

1: 0.705; 2: 0.705; 3: 0.707; 4: 0.699; 5: 0.686; 6: 0.703; 7: 0.701; 8: 0.715

###

Consider the following sequences; for each one, report its protein stability index.
test system: Saccharomyces cerevisiae; experiment: protein stability index of tFT-peptide fusion (C-terminal peptide) (PSI (0-1 scale)); higher = more stable (slower turnover); conditions: genetic background: das1 deletion; temperature: 30 C
Give bare numbers.

Some sequences with recorded protein stability index:
* LVLKQRQEQEKQ [GDI1 C-terminal 12 aa] | 0.688
* EDHRDISGKDVN [UBP1 C-terminal 12 aa] | 0.686
* SQLPSLYAPSYY [SSU72 C-terminal 12 aa] | 0.703
* SEEEEEEEWKGF [RRP1 C-terminal 12 aa] | 0.68
* ARAAAEYDCTVA [ATR1 C-terminal 12 aa] | 0.702

Alright, here's another sequence for you.
# input sequence: LKLKRDLLRLKR [CIP1 C-terminal 12 aa] ; wanted: its protein stability index
0.682

###

test system: Saccharomyces cerevisiae; experiment: protein stability index of tFT-peptide fusion (C-terminal peptide) (PSI (0-1 scale)); higher = more stable (slower turnover); conditions: genetic background: doa10 deletion; temperature: 30 C
Mark True for reported protein stability index of 0.2 or greater; mark False for anything smaller.

• VFSLAFYLVLFF = True
• FPFFLLAAPFLA = False
• FGCLFILRCSFL = True
• KALSSSYFGTRL = True
• SVLASFFSAFVC = False

Evaluate WCCVFVARFFWL : protein stability index at minimum 0.2?
True

###

Consider the following sequences; for each one, report its protein stability index.
system: Saccharomyces cerevisiae; assay: protein stability index of tFT-peptide fusion (C-terminal peptide) (PSI (0-1 scale)); higher = more stable (slower turnover); conditions: genetic background: cdc34-1; temperature: 37 C

For each of the items listed, what is its protein stability index?
1. HDLRRRVVSVMV
2. FLIYMFRHCFFH
3. CLWLRCIVSILP

[0.48, 0.537, 0.121]

###

test system: Saccharomyces cerevisiae; assay: protein stability index of tFT-peptide fusion (C-terminal peptide) (PSI (0-1 scale)); higher = more stable (slower turnover); details: genetic background: wild type; temperature: 30 C
Consider the following sequences; for each one, report its protein stability index.
Numbers only.

• TTNLDKKILKTS = 0.652
• WGGGLGTAVVGV = 0.643
• RFPLSLRIPLPK = 0.63
• RVQFYVGSPALR = 0.697
• GIRKNIDNNEKI = 0.686

For each of the items listed, what is its protein stability index?
1. RVPVSQHARTRN
2. QGLSFVSVSPRP
3. SFVRTLSCISIF

1: 0.674; 2: 0.795; 3: 0.513

###

test system: Saccharomyces cerevisiae; experiment: protein stability index of tFT-peptide fusion (C-terminal peptide) (PSI (0-1 scale)); higher = more stable (slower turnover); details: genetic background: cdc34-1; temperature: 37 C
Category key, based on recorded protein stability index: lower bin (below 0.4), middle bin (0.4 to below 0.6), upper bin (0.6 or more)

Into which category would you place CGLLWFYSFFLF ?
middle bin

###

test system: Saccharomyces cerevisiae; assay: protein stability index of tFT-peptide fusion (C-terminal peptide) (PSI (0-1 scale)); higher = more stable (slower turnover); conditions: genetic background: wild type; temperature: 30 C
Reported Metric: protein stability index
Give bare numbers.

- RWVRGDVFQGFC: 0.693
- KKKNNKRKAKNK: 0.692
- GGCGYGELWAWA: 0.791

For each of the items listed, what is its protein stability index?
1. RPGRSDRCLRWS
2. SRLVIGRWSVLV
3. SCVDRAVGCRVS
4. CCLSVFSYESLA
5. IKRLNNEKSSKA
6. SPPRPPRPPRRA
7. HSPPRPPFHPRF

0.673
0.318
0.696
0.709
0.676
0.599
0.701

For each of the items listed, what is its protein stability index?
1. SPLLPPPLLFLS
2. ECGNYRGPYRTR

1: 0.211; 2: 0.678

###

test system: Saccharomyces cerevisiae; assay: protein stability index of tFT-peptide fusion (C-terminal peptide) (PSI (0-1 scale)); higher = more stable (slower turnover); conditions: genetic background: wild type; temperature: 30 C
Mark condition met for reported protein stability index of 0.7 or greater; mark condition not met for anything smaller.

Worked cases, answers included:
• DFFYFFQGPFVL [YOR072W-B C-terminal 12 aa] = condition met
• AMMKAEENFVKS [MAG1 C-terminal 12 aa] = condition not met
• GLVATAVKQLPQ [VPS64 C-terminal 12 aa] = condition not met
• RESINEAKLRHT [BDH2 C-terminal 12 aa] = condition not met
• LAKLINKSCVFK [YKL069W C-terminal 12 aa] = condition not met

Evaluate IMSTASAQFVGN [YIR018C-A C-terminal 12 aa] : protein stability index at minimum 0.7?
condition not met

Evaluate EESDSPESTAFY [PMC1 C-terminal 12 aa] : protein stability index at minimum 0.7?
condition not met

Evaluate FMWLLLALPVVF [FLO11 C-terminal 12 aa] : protein stability index at minimum 0.7?
condition not met

Evaluate GQSLTNTGGGCC [YPT1 C-terminal 12 aa] : protein stability index at minimum 0.7?
condition not met

Evaluate DATLYLGRFLPH [PEF1 C-terminal 12 aa] : protein stability index at minimum 0.7?
condition not met

Evaluate LKDQIVETRTPI [ERG27 C-terminal 12 aa] : protein stability index at minimum 0.7?
condition not met

Evaluate GYWEDVFVHLAL [HMLALPHA1 C-terminal 12 aa] : protein stability index at minimum 0.7?
condition met

Evaluate NIEKGVNFVASK [MDH1 C-terminal 12 aa] : protein stability index at minimum 0.7?
condition not met

###

system: Saccharomyces cerevisiae; test: protein stability index of tFT-peptide fusion (C-terminal peptide) (PSI (0-1 scale)); higher = more stable (slower turnover); settings: genetic background: das1 deletion; temperature: 30 C
Mark Criterion met for reported protein stability index of 0.7 or greater; mark Criterion not met for anything smaller.

• VKSDSGSSCTIM [RHO3 C-terminal 12 aa] = Criterion met
• DVDLTKSGGFKT [CKB2 C-terminal 12 aa] = Criterion not met
• RRLEMEIANLQE [SPC34 C-terminal 12 aa] = Criterion met

Evaluate RYIYAYINAQVQ [YHL005C C-terminal 12 aa] : protein stability index at minimum 0.7?
Criterion not met

Evaluate AAEAKEHMQEAN [TIF34 C-terminal 12 aa] : protein stability index at minimum 0.7?
Criterion met

Evaluate ILMNEFAFNPKV [LEU3 C-terminal 12 aa] : protein stability index at minimum 0.7?
Criterion met

Evaluate TVVDARIDGRGK [PHB2 C-terminal 12 aa] : protein stability index at minimum 0.7?
Criterion not met

Evaluate AFKRKKQELGVN [QDR2 C-terminal 12 aa] : protein stability index at minimum 0.7?
Criterion not met

Evaluate LSNMLNQFILNL [YLR202C C-terminal 12 aa] : protein stability index at minimum 0.7?
Criterion met

Evaluate FRSTRSNTPNYT [HDA2 C-terminal 12 aa] : protein stability index at minimum 0.7?
Criterion met
